Biological target: FAAH (Mus musculus)
Sequence (O08914 1-579): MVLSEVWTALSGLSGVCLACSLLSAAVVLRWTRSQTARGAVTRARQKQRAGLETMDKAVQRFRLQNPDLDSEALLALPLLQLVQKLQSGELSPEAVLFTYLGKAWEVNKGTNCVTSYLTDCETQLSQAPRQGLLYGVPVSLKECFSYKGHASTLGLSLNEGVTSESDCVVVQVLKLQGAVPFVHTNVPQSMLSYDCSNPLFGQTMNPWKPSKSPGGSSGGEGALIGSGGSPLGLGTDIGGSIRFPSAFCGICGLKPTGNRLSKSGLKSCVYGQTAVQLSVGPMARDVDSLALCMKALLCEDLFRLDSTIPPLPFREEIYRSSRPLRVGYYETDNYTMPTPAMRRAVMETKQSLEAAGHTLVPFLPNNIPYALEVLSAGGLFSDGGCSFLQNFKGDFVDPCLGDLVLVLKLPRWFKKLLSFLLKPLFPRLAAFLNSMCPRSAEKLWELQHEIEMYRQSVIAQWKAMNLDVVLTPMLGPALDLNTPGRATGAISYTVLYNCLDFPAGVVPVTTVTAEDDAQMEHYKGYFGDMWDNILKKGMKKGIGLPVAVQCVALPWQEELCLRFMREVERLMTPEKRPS
Assay: competitive ABPP with TAMRA-FP in mouse brain membrane proteome, FAAH labeling
Type: binding
Observed Property: pIC50
Please treat pIC50 as minus the base-10 logarithm of the molar concentration.

# get_value(readout='pIC50', item= O=C(CCCCCc1ccccc1)c1nc2ncccc2o1 [LEI104] ) 7.80

Values were extracted from paper PMC4773911.
